System: SNB-19
Experiment: NCI tumour cell line growth inhibition, 48 h
Active and inactive are the calls of the source. Cut-off read from the data, not from the text of the source: active = GI50 up to about 1.1 µM and inactive = higher.
GI50 for assorted compounds

Here are 3 compounds together with their reported answers.
[
  {
    "COMPOUND": "CC(C(O)c1ccccc1)C(O)(C(F)(F)F)C(F)(F)F (centres undefined)",
    "GI50": "> 100 µM (inactive)"
  },
  {
    "COMPOUND": "CC1=CC[C@@]2(C)CC[C@](O)(C(C)C)C2C(OC(=O)c2ccccc2)C1 (some centres undefined)",
    "GI50": "20.7 µM (inactive)"
  },
  {
    "COMPOUND": "Cc1ccc(/C=C2/N/C(=N\\N=C/c3ccccc3)NC2=O)cc1",
    "GI50": "25.8 µM (inactive)"
  }
]

q: Look up and report measured GI50 for this entry: Cc1cc(C#N)c(Nc2c(C)cccc2[N+](=O)[O-])s1
a: 68.2 µM (inactive)

* * *

Tested on: TK-10
Experiment: NCI tumour cell line growth inhibition, 48 h
Calls of active or inactive are those of the source. No stated cut-off is given here; in the data, active = GI50 up to about 1.1 µM and inactive = higher.
I would appreciate it if you answered using one of these outcomes: y (active), n (inactive)

Field: example entries. Status: answers known.
[
  {
    "COMPOUND": "CN(C)CCc1ccc(Cl)cc1Cl",
    "GROUP_LABEL": "n"
  },
  {
    "COMPOUND": "C=C1CCC23CC(CC[C@@H]2[C@@]12C[C@@H](c1ccoc1)OC2=O)OC3=O (some centres not stated)",
    "GROUP_LABEL": "n"
  },
  {
    "COMPOUND": "CC[C@@]1(O)C[C@H](OC2CC(N(C)C)C(OC3CC(O)C(OC4CCC(=O)C(C)O4)C(C)O3)C(C)O2)c2c(cc3c(c2O)C(=O)c2c(O)ccc(O)c2C3=O)[C@H]1C(=O)OC (some centres not stated)",
    "GROUP_LABEL": "y"
  },
  {
    "COMPOUND": "CC1=C(N2CC2)C(=O)c2ccccc2C1=O",
    "GROUP_LABEL": "n"
  }
]

q: What is the recorded call for this compound in the test? COc1cc(O)c(C(=O)/C=C/c2ccc(O)cc2)cc1Oc1ccc(C(=O)/C=C/c2ccc(O)cc2)c(O)c1 [RHUSCHALCONE IV]
a: n

q: What is the recorded call for this compound in the test? Cc1ccc(-n2c(N)c(C#N)c3[nH]nc(N)c3c2=O)cc1
a: n

q: What is the recorded call for this compound in the test? COc1ccc2[nH]cc(CCNC(=O)[C@H](Cc3ccccc3)NC(=O)[C@@H](NCC(F)(F)F)C(C)C)c2c1
a: n

q: What is the recorded call for this compound in the test? COC(=O)c1c2c(cc3c1CC1(Cc4cc5c(c(C)c4C1)CCC5)C3)CCC2 (configuration not stated)
a: n

q: What is the recorded call for this compound in the test? O=C(O)CC[N+]1=CCC(c2ccccc2)(c2ccccc2)O1
a: n

q: What is the recorded call for this compound in the test? COc1ccccc1NC(=O)C(C#N)=C(SC)SC
a: n

q: What is the recorded call for this compound in the test? Cc1cn(C2CC(/[N+]([O-])=N\Nc3ccc([N+](=O)[O-])cc3)C(CO)O2)c(=O)[nH]c1=O (configuration not stated)
a: n

q: What is the recorded call for this compound in the test? Cc1cccc(C(C)C)c1NC(=O)CC1C(=O)Nc2ccccc2S1(=O)=O (configuration not stated)
a: n

The measurements presented in this section are drawn from ChEMBL document CHEMBL1201862.
